Data origin: patent US6492328B2

Test system: S. maltophilia 47CG
Assay: Novispirins vs S. maltophilia (Table 5)
Assay type: cell-based, Stenotrophomonas maltophilia
Design: unit not given here
Conditions: +100 mM NaCl; strain 47CG
Experimental: Microorganisms used in this study included 13 different Pseudomonas aeruginosa strains. The AML-654 and LZ-1 strains are recent clinical isolates from the UCLA Clinical Microbiology laboratory. Nine strains (5 mucoid, 4 nonmucoid) were recent CF isolates provided by Dr. Lisa Saiman. All of the P. aeruginosa strains except PAO-1 strain were resistant to multiple conventional antibiotics, and all 9 CF isolates were resistant to 250 μg/ml of tobramycin. […]
Where no end group is shown, it is not given here.
Documented activity vs S. maltophilia across a set of substances
Give the figure only, with no unit attached.

// below: answered substances
Asked: // query activity vs S. maltophilia value for entry KNLRRITRKIIHIIKKYG [T7 Novispirin, K N L R R I T R K I I H I I K K Y G]
Given back: 0.47

Asked: Repeat with GLLRRLRKKIGEIFKKYG [PGG, reference compound]
Given back: 1.08

Asked: Repeat with KNLRRIIRKGIHIIKKYG-OH [G10 Novispirin, K N L R R I I R K G I H I I K K Y G]
Given back: 0.68

Others:
Asked: // query activity vs S. maltophilia value for entry KNLRRIGRKIIHIIKKYG [G7 Novispirin, K N L R R I G R K I I H I I K K Y G]
Given back: 0.39
